Reference source for all entries: ChEMBL document CHEMBL1139372

Quick reference for CC50 among some compounds
- measurement_notes: Cytotoxicity against human MT4 cells by MTT assay
- Format: cell-based
experimental_readout: CC50 (µM)

[[record]]
smiles_entry = "COc1cccc2c1c(C(=O)/C=C(\\O)C(=O)O)cn2Cc1cc(F)cc(F)c1"
experimental_readout = "CC50"
value_observed = 29.5

[[record]]
smiles_entry = "COc1cccc2c1c(C(=O)/C=C(\\O)C(=O)O)cn2Cc1c(F)cccc1F"
experimental_readout = "CC50"
value_observed = 44.3

[[record]]
smiles_entry = "COc1cccc2c1c(C(=O)/C=C(\\O)C(=O)O)cn2Cc1ccccc1F"
experimental_readout = "CC50"
value_observed = 70.5

[[record]]
smiles_entry = "CCOC(=O)/C(O)=C/C(=O)c1cn(Cc2cc(F)ccc2F)c2cccc(OC)c12"
experimental_readout = "CC50"
value_observed = 41.2

[[record]]
smiles_entry = "CCOC(=O)/C(O)=C/C(=O)c1cn(Cc2c(F)ccc(F)c2F)c2cccc(OC)c12"
experimental_readout = "CC50"
value_observed = 40.5

[[record]]
smiles_entry = "CCOC(=O)/C(O)=C/C(=O)c1cn(Cc2cccc(F)c2F)c2cccc(OC)c12"
experimental_readout = "CC50"
value_observed = 21.1

[[record]]
smiles_entry = "CCOC(=O)/C(O)=C/C(=O)c1cn(Cc2ccc(F)c(F)c2)c2cccc(OC)c12"
experimental_readout = "CC50"
value_observed = 125

[[record]]
smiles_entry = "COc1cccc2c1c(C(=O)/C=C(\\O)C(=O)O)cn2Cc1cccc(F)c1"
experimental_readout = "CC50"
value_observed = 65.8

[[record]]
smiles_entry = "COc1cccc2c1c(C(=O)/C=C(\\O)C(=O)O)cn2Cc1cc(F)c(F)c(F)c1"
experimental_readout = "CC50"
value_observed = 23.3

[[record]]
smiles_entry = "COc1cccc2c1c(C(=O)/C=C(\\O)C(=O)O)cn2Cc1ccc(F)c(F)c1"
experimental_readout = "CC50"
value_observed = 71

[[record]]
smiles_entry = "COc1cccc2c1c(C(=O)/C=C(\\O)C(=O)O)cn2Cc1ccc(F)cc1F"
experimental_readout = "CC50"
value_observed = 20.8

[[record]]
smiles_entry = "CCOC(=O)/C(O)=C/C(=O)c1cn(Cc2cc(F)c(F)c(F)c2)c2cccc(OC)c12"
experimental_readout = "CC50"
value_observed = 33.4

[[record]]
smiles_entry = "COc1cccc2c1c(C(=O)/C=C(\\O)C(=O)O)cn2Cc1c(F)ccc(F)c1F"
experimental_readout = "CC50"
value_observed = 49.4

[[record]]
smiles_entry = "COc1cccc2c1c(C(=O)/C=C(\\O)C(=O)O)cn2Cc1cc(F)ccc1F"
experimental_readout = "CC50"
value_observed = 46.2

